- Tested on: HCV Huh-luc/neo-ET replicon cells
- assay.text: Luciferase-Based HCV Replicon Assay (EC50 (1b))
- Type: cell-based
- stated.conditions: 72 hours exposure, luciferase activity
- Experimental: Luciferase-Based HCV Replicon Assay Protocol (EC50 (1b)) The cell culture component of the assay was performed essentially as described by Bartenschlager et al., Hepatology 2002, 35, 694-703, wherein exponentially growing HCV Huh-luc/neo-ET replicon cells were seeded at 6×10^3 cells/well in 96 well assay plate. 24 hours later the cells were treated with various concentrations of compound in triplicate. […]
pEC50: −log10 of the molar value.
readout.name: pEC50

Sure, the documented pEC50 for CS(=O)(=O)NCc1csc2c1S(=O)(=O)N=C(C1=C(O)C3C4CCC(C5CC54)C3N(Cc3ccc(F)cc3)C1=O)N2 (racemic) is ≥ 8.30

Now for another entry.
Sure, the documented pEC50 for CC(C)(C)CCN1C(=O)C(C2=NS(=O)(=O)c3c(CNS(C)(=O)=O)csc3N2)=C(O)C2C3CCC(C4CC43)C21 (racemic) is ≥ 8.30

Origin of measurements: patent US8222404B2
